Entry source: ChEMBL document CHEMBL3785029

- method_summary: AUClast in Sprague-Dawley rat at 30 mg/kg, po administered as single dose measured up to 6 hrs post dose by LC/MS/MS analysis
- assay_context: in vivo
test_readout: AUC(0-t) at 6 h (ng·h/mL)
Give the value, in units of ng·h/mL, as a plain number.

**Q:** Reported AUC(0-t) at 6 h for O=C(O)c1cccnc1 : what is it?
**A:** 6980

###

- method_summary: AUClast in Sprague-Dawley rat at 300 mg/kg, po measured up to 24 hrs post dose
- Assay type: ADME, organism-based
- Design: dose 300 mg/kg, time < 24 hr, route oral
- assay_context: in vivo
test_readout: AUC(0-t) at 24 h (ng·h/mL)
Value expressed in ng·h/mL; do not type the unit.

**Q:** # AUC(0-t) at 24 h lookup, item CC/C=C\C/C=C\C/C=C\C/C=C\C/C=C\C/C=C\CCC(=O)NCCNC(=O)c1ccccc1O
**A:** 1940
